- Measurement protocol: Metabolic stability and metabolite profiling in hepatocytes
- Type: in vitro ADME, human
- Assay conditions: human, human hepatocytes (suspension); read-out: apparent Km of consumption by hepatocytes
Assay endpoint: Km

{"columns": ["Compound", "Reported"],
 "data": [
  ["CN1CCCC1CCNC(=O)c1cn2c3c(c(N4CCC(c5cnccn5)C4)c(F)cc3c1=O)Oc1cc3ccccc3cc1-2 (stereo not shown) [CX-3543]", "> 20 µM"]
]}

* * *

- Tested system: c-Myc template DNA (c-myc quadruplex)
- Measurement protocol: Quadruplex binding / stop assay (Taq polymerase arrest, capillary electrophoresis)
- Assay conditions: read-out: Stop Data c-Myc μM; concentration at which 50% of the DNA was arrested (arrested:full-length 1:1)
Entries and their measured IC50 follow.

{"columns": ["Compound", "Units symbol", "IC50"],
 "data": [
  ["NCCCNC(=O)c1cn2c3c(c(N4CCC(N)C4)c(F)cc3c1=O)Oc1cc3ccccc3cc1-2 (stereo not shown) [compound 466]", "µM", 0.75],
  ["CN1CCCC1CCNC(=O)c1cn2c3c(c(NCC4(O)CCCCC4)c(F)cc3c1=O)Oc1cc3ccccc3cc1-2 (stereo not shown) [compound 391]", "µM", 0.75],
  ["CN1CCN(CCCNc2ccc3c(=O)c(C(=O)NCCC4CCCN4C)cn4c3c2Oc2cc3ccccc3cc2-4)CC1 (stereo not shown) [compound 455]", "µM", 0.75],
  ["CN(C)CCCCNc1c(F)cc2c(=O)c(C(=O)NCCN3CCCC3)cn3c2c1Oc1cc2ccccc2cc1-3 [compound 318]", "µM", 1],
  ["NC1CCN(c2c(F)cc3c(=O)c(C(=O)N4CCCCC4CN4CCCC4)cn4c3c2Oc2cc3ccccc3cc2-4)C1 (stereo not shown) [compound 249]", "µM", 1.75],
  ["CN1CCCC1CCNC(=O)c1cn2c3c(c(NCCCN4CCOCC4)c(F)cc3c1=O)Oc1cc3ccccc3cc1-2 (stereo not shown) [compound 51]", "µM", 2.5],
  ["CN(C)CCC(=O)N[C@@H]1CCN(c2c(F)cc3c(=O)c(C(=O)NCCCN4CCN(C)CC4)cn4c3c2Oc2cc3c(cc2-4)oc2ccccc23)C1 [compound 175]", "µM", 1.75]
]}

* * *

- Measurement protocol: Pharmacokinetic/toxicokinetic evaluation in dogs
- Assay type: in vivo, beagle dogs
- Assay conditions: male, beagle, dog, plasma, iv, 1.2 mg/kg, male, 1.2 mg/kg IV infusion, Dose 1, read-out: Mean Cmax
Assay endpoint: Cmax

{"columns": ["Compound", "Reported"],
 "data": [
  ["CN1CCCC1CCNC(=O)c1cn2c3c(c(N4CCC(c5cnccn5)C4)c(F)cc3c1=O)Oc1cc3ccccc3cc1-2 (stereo not shown) [CX-3543]", "108 ng/mL"]
]}

* * *

- Tested system: c-Myc template DNA (c-myc quadruplex)
- Measurement protocol: Quadruplex binding / stop assay (Taq polymerase arrest, capillary electrophoresis)
- Assay conditions: read-out: IC50 value in the stop assay; arrest product/full-length product ratio 1:1; FIG. 2
pIC50: −log10 of the molar value.
Assay endpoint: pIC50

{"columns": ["Compound", "Reported"],
 "data": [
  ["CN1CCCC1CCNC(=O)c1cn2c3c(c(N4CCC(c5cnccn5)C4)c(F)cc3c1=O)Oc1cc3ccccc3cc1-2 (stereo not shown)", 6.00]
]}

* * *

- System: HeLa cells
- Measurement protocol: MTS cell proliferation and/or cytotoxicity assay
- Format: cell-based, Human
- Assay conditions: Homo sapiens, HeLa, 72 h, concentration at which 50% of antiproliferative cell response is seen; 3 days incubation; read-out: MTS Data Hella
Please note: IC50 exactly at 2000 nM is false (0). Only values below 2000 nM get true (1).

{"columns": ["Compound", "Tested system", "Qualitative label"],
 "data": [
  ["CN1CCCC1CCNC(=O)c1cn2c3c(c(N4CCC(N)C4)c(F)cc3c1=O)Oc1cc3c(cc1-2)Cc1ccccc1-3 (stereo not shown) [compound 537]", "HeLa cells", "true (1)"],
  ["C[C@@H](O)CNc1c(F)cc2c(=O)c(C(=O)NCCC3CCCN3C)cn3c2c1Oc1cc2ccccc2cc1-3 (stereo partly shown) [compound 382]", "HeLa cells", "true (1)"],
  ["CN1CCCC1CCNC(=O)c1cn2c3c(c(NCCc4ccc(O)c(O)c4)c(F)cc3c1=O)Oc1cc3ccccc3cc1-2 (stereo not shown) [compound 381]", "HeLa cells", "true (1)"],
  ["CN(C)CCCCNC(=O)c1cn2c3cc4c(cc3oc3c(NCCCN5CCOCC5)c(F)cc(c1=O)c32)c(=O)c1ccccc14 [compound 519]", "HeLa cells", "false (0)"],
  ["CN1CCCC1CCNC(=O)c1cn2c3c(c(NC4CN5CCC4CC5)c(F)cc3c1=O)Oc1cc3ccccc3cc1-2 (stereo not shown) [compound 486]", "HeLa cells", "true (1)"],
  ["CN1CCCC1CCNC(=O)c1cn2c3c(c(NC[C@H]4CCCO4)c(F)cc3c1=O)Oc1cc3ccccc3cc1-2 (stereo partly shown) [compound 34]", "HeLa cells", "true (1)"],
  ["CN(C)CCCCNc1c(F)cc2c(=O)c(C(=O)NCCC3CCCN3C)cn3c2c1Oc1cc2c(cc1-3)oc1ccccc12 (stereo not shown) [compound 366]", "HeLa cells", "false (0)"]
]}

* * *

Recorded IC50, one value per entry.
- Tested system: c-Myc template DNA (c-myc quadruplex)
- Measurement protocol: Quadruplex binding / stop assay (Taq polymerase arrest, capillary electrophoresis)
- Assay conditions: read-out: Stop Data c-Myc μM; concentration at which 50% of the DNA was arrested (arrested:full-length 1:1)
Assay endpoint: IC50 (µM)

{"columns": ["Compound", "Tested system", "Assay endpoint", "Reported"],
 "data": [
  ["N=C(N)NCC1CCCC(CNC(=O)c2cn3c4c(c(N5CCC(N)C5)c(F)cc4c2=O)Oc2cc4ccccc4cc2-3)C1 (centres unmarked)", "c-Myc template DNA (c-myc quadruplex)", "IC50", 0.37],
  ["CN(C)CCCCNC(=O)c1cn2c3c(c(N4CC[C@@H](N)C4)c(F)cc3c1=O)Oc1ccccc1-2", "c-Myc template DNA (c-myc quadruplex)", "IC50", 1.75],
  ["CN1CCN(CCCNC(=O)c2cn3c4c(c(N5CC6CCCNC6C5)c(F)cc4c2=O)Oc2cc4ccccc4cc2-3)CC1 (centres unmarked)", "c-Myc template DNA (c-myc quadruplex)", "IC50", 0.75],
  ["CN1CCCC1CCNC(=O)c1cn2c3c(c(NCCC4CCCN4C)c(F)cc3c1=O)Oc1c-2ccc2ccccc12 (centres unmarked)", "c-Myc template DNA (c-myc quadruplex)", "IC50", 0.375],
  ["CN1CCCC1CCNC(=O)c1cn2c3c(c(NCCN4CCCC4)c(F)cc3c1=O)Oc1cc3ccccc3cc1-2 (centres unmarked)", "c-Myc template DNA (c-myc quadruplex)", "IC50", 2.5],
  ["CC(C)(C)OC(=O)N[C@H]1CCN(c2c(F)cc3c(=O)c(C(=O)NCCN4CCOCC4)cn4c5cc6c(cc5oc2c34)c(=O)c2ccccc26)C1", "c-Myc template DNA (c-myc quadruplex)", "IC50", 1.75],
  ["CN(C)CCCCNc1c(F)cc2c(=O)c(C(=O)NCCC3CCCN3C)cn3c4cc5c(cc4oc1c23)c(=O)c1ccccc15 (centres unmarked)", "c-Myc template DNA (c-myc quadruplex)", "IC50", 0.375],
  ["O=C(NCCN1CCOCC1)c1cn2c3c(c(NCCN4CCCC4)ccc3c1=O)Oc1cc3ccccc3cc1-2", "c-Myc template DNA (c-myc quadruplex)", "IC50", 1.75],
  ["CN(C)CCCCNc1c(F)cc2c(=O)c(C(=O)N3CC[C@H](NC(=O)OC(C)(C)C)C3)cn3c4cc5c(cc4oc1c23)c(=O)c1ccccc15", "c-Myc template DNA (c-myc quadruplex)", "IC50", 1.75],
  ["CN(C)CC(C)(C)CNC(=O)c1cn2c3c(c(N4CCC(N)C4)c(F)cc3c1=O)Oc1cc3ccccc3cc1-2 (centres unmarked) [compound 329]", "c-Myc template DNA (c-myc quadruplex)", "IC50", 1],
  ["CN1CCN(c2c(F)cc3c(=O)c(C(=O)NCCN4CCCC4)cn4c5cc6c(=O)c7ccccc7c(=O)c6cc5oc2c34)CC1", "c-Myc template DNA (c-myc quadruplex)", "IC50", 0.9],
  ["CN1CCCN(c2c(F)cc3c(=O)c(C(=O)N4CCOCC4)cn4c3c2Oc2cc3ccccc3cc2-4)CC1", "c-Myc template DNA (c-myc quadruplex)", "IC50", 2.5],
  ["CN1CCCC1CCNC(=O)c1cn2c3c(c(NCCCN4CCCC4=O)c(F)cc3c1=O)Oc1cc3ccccc3cc1-2 (centres unmarked)", "c-Myc template DNA (c-myc quadruplex)", "IC50", 1.8],
  ["O=C(NCCN1CCCC1)c1cn2c3cc4c(=O)c5ccccc5c(=O)c4cc3oc3c(NCCN4CCCC4)c(F)cc(c1=O)c32", "c-Myc template DNA (c-myc quadruplex)", "IC50", 0.22]
]}

Entry source: patent US7507727B2
